# System: Saccharomyces cerevisiae
# method: transcriptional activation domain activity (GFP:mCherry ratio, weighted mean of sorted bins, harmonized to initial dataset scale) (arbitrary fluorescence ratio units); higher = stronger transcriptional activation
# particulars: beta-estradiol 1 µM; induction time 4 h
transcriptional activation domain activity values for the sequences below.

1. MLCIWLLSLYVWFVQEKGAYKPVLSSSFFFWLILQVYVHRYWLPFPSLTFLYH	55500
2. AEEGEEGRRKKGASKARSESGRSRIGGKRKEGEGEREGDEGRKKKRKKNKEKE	32800
3. AKEDEGEKGKNKDKSKKEEEKKEEGEKKEEGEVKGVKEVEELKVEQPKEEVKL	17700
4. LHRYPIIRRGVALQTGKGKRKRMYQLIVVGNGDGLVGYGEGKNEDMGMAASKS	28500
5. ASIPDPAADDDDAEFGGTGEKKPRKRAPKAASGESKNGKAKAVKTEGGASAAG	33300

Find the measured transcriptional activation domain activity of `KIHLVNLLQISVLFVHRFIFGLVPLFEITTCAFFPLLISLWHLDYILFYVVMF` and report it. 53800

Please supply the value of reported transcriptional activation domain activity for the item `TMEMAWLDMGRFFYFLFFYFLFFLLSSFFVFFYSFIYFFFSLLLFFFILWLEM` 45900

Assign transcriptional activation domain activity to the following record: `RRVWLKYILYFVYGIVDWVYSTSLLKTMVWLRLPLYITVGKHVLVGLVGSMWV` 50000

Specify transcriptional activation domain activity for `AIHRQLVESILGTTLRCTADISALDVSIADTLWYLLDGTARMVIQFFAVVLFA` and stop. 62700

Assign transcriptional activation domain activity to the following record: `SKADTEDGEEAVDDTATEEKPEAKAEEVTEETTTEKEAEAAAESAAAEKLRRD` 25700

Values from the supplement of paper PMC12636428
